Molecular target: F protein of human metapneumovirus strain JPS03-178 (type A2), on infectious virus (human metapneumovirus, strain JPS03-178 …)
Assay: cell-based or functional assay
Provide the reported IC90, neutralizing activity (hMPV infection of LLC-MK2 cells; GraphPad Prism 6) of each item.
Give bare numbers, in µg/mL.

Example binders with recorded IC90, neutralizing activity (hMPV infection of LLC-MK2 cells; GraphPad Prism 6):
{"columns": ["Binder", "Readout number"],
 "data": [
  ["EV046136 (antibody, human IgG1, kappa, V domains shown) VH: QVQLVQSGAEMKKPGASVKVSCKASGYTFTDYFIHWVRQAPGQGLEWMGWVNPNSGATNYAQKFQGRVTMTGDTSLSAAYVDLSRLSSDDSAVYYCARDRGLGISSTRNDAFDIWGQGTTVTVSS VL: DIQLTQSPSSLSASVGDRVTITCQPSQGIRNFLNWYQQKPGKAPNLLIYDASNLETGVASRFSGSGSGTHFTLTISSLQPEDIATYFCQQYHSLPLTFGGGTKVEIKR", 0.605],
  ["EV046147 (antibody, human IgG1, lambda, V domains shown) VH: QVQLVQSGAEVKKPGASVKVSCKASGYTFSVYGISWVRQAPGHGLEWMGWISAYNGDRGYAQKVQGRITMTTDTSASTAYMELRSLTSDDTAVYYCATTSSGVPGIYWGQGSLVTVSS VL: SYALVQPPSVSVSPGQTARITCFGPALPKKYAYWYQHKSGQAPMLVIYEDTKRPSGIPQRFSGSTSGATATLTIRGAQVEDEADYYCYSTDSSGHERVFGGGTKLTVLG", 2.41]
]}

Switching to the query record.
Asked: So what's the measured IC90, neutralizing activity (hMPV infection of LLC-MK2 cells; GraphPad Prism 6) for this one? EV046130 (antibody, human IgG1, lambda, V domains shown) VH: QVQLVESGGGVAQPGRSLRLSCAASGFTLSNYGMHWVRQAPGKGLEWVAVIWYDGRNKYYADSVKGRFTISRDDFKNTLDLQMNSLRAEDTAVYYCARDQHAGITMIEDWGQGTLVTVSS VL: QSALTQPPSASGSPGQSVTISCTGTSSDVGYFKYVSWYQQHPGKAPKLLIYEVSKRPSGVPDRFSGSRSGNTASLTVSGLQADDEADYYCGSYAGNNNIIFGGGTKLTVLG
Given back: 2.3
